Target: Phospholipid hydroperoxide glutathione peroxidase GPX4 (Homo sapiens)
Assay: Primary qHTS Assay for Inhibitors of Recombinant Selenoprotein Glutathione Peroxidase 4 (GPX4) (AID 1845192); also: nearly all actives have a fitted effect of over 65% in size
Conditions: recombinant GPX4, GR-coupled NADPH fluorescence, 15 min; series mostly up to 50 µM
Inconclusive results are not listed. Activity calls are given as the source filed them. Calls follow the shape of the dose curve; as a rule, active = well fitted inhibition curve with a large enough effect; inconclusive = small, poorly fitted or top-dose-only effect; inactive = flat fitted curve, though single readings scatter.
The reply should be one of these categories: active, inactive

Query: recorded result category for CC(=O)O[C@@H]1CC2C3CCc4cc(OC(=O)c5ccccc5)ccc4C3CCC2(C)[C@H]1OC(C)=O (stereo not given in full) in this test
inactive

Query: recorded result category for CC(Oc1c(Cl)cccc1Cl)C1=NCCN1 (stereo not given) in this test
inactive

Query: recorded result category for CC[N+]1(CC)CCC(=C(c2ccccc2)c2ccccc2)C1C (stereo not given) in this test
inactive

###

Experiment: qHTS of pediatric cancer cell lines to identify multiple opportunities for drug repurposing: Primary screen for LAN-5 cells (AID 1347100);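 also: plate controls were DMSO neutral control for no effect and bortezomib positive control for full effect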
Conditions: LAN-5 neuroblastoma viability, CellTiter-Glo luminescence, 48 h; series mostly up to 46 µM
Inconclusive results are not listed. Activity calls are given as the source filed them. Calls follow the shape of the dose curve; as a rule, active = well fitted cell-killing curve with a large enough effect; inconclusive = small, poorly fitted or top-dose-only effect; inactive = no such curve, though single readings can be large or run the other way.
PARAMETER_MEASURED: outcome

See these solved cases before continuing.
COMPOUND	outcome
CO/N=C(\C(=O)O)c1csc(NC(=O)CCl)n1	inactive
C[C@@]12CCC[C@H]1[C@@H]1CC[C@H]3C[C@@H](O)CC[C@]3(C)[C@H]1CC2	inactive
CCCCNc1ccc(C(=O)OCCN(CC)CC)cc1	inactive
O=C(COCCOCCOCC(=O)Nc1c(I)cc(I)c(C(=O)O)c1I)Nc1c(I)cc(I)c(C(=O)O)c1I	inactive
O=C(OCC1(COC(=O)c2cccnc2)CCCC(COC(=O)c2cccnc2)(COC(=O)c2cccnc2)C1O)c1cccnc1	inactive

Briefly, outcome measured for CCC[C@H](N[C@@H](C)C(=O)N1[C@H](C(=O)O)C[C@@H]2CCCC[C@@H]21)C(=O)OCC : inactive

Briefly, outcome measured for CCC(=O)O[C@H]1[C@H](O[C@@H]2[C@@H](C)[C@H](O[C@H]3C[C@@](C)(OC)[C@@H](O)[C@H](C)O3)[C@@H](C)C(=O)O[C@H](CC)[C@@](C)(O)[C@H](O)[C@@H](C)C(=O)[C@H](C)C[C@@]2(C)O)O[C@H](C)C[C@@H]1N(C)C : inactive

Briefly, outcome measured for CCCCCOc1ccc(C2SC(=O)NC2=O)cc1OCC (stereo not given) : inactive

Briefly, outcome measured for COc1ccccc1OCC1CNC(=O)O1 (stereo not given) : inactive

Briefly, outcome measured for CCCCN(CCN(CCCC)C(=O)N1CCOCC1)C(=O)N1CCOCC1 : inactive

###

System: Tov-21-G
Experiment: Primary qHTS to identify gynecologic anti-cancer compounds using libraries of approved drugs and bioactive compounds (AID 1345084); also: nearly all actives have a fitted effect of over 55% in size
Details: Gynecologic cancer cell panel viability, ATPlite luminescence, 48 h; series mostly up to 57.5 µM
Results filed as inconclusive are left out. The source made the active and inactive calls. Calls come from the whole dose curve; as a rule, active = well fitted cell-killing curve with a large enough effect; inconclusive = small, poorly fitted or top-dose-only effect, or effect the other way; inactive = flat fitted curve, though single readings scatter.
The reply should be one of these categories: 1 (yes) for active, 0 (no) for inactive

// below: answered compounds
COMPOUND	CAT
Oc1cccc2[nH]ccc12	0 (no)
CC(=O)N1CCN(c2ccc(O)cc2)CC1	0 (no)
CCOC(=O)N1CCC(n2c(=O)[nH]c3cc(Cl)ccc32)CC1	0 (no)
CC1CC(=O)NN=C1c1ccc(NCC(C)(C)NCC(O)COc2cc(Cl)ccc2C#N)cc1 (configuration not stated)	0 (no)
Cc1nc(N)nc(N)c1-c1ccc(Cl)c(Cl)c1	1 (yes)

Query: recorded result category for O=C(O)CCCC[C@@H]1SC[C@@H]2NC(=O)N[C@@H]21 in this test
0 (no)

Query: recorded result category for CCCCCC[C@@H](CCC)C(=O)O in this test
0 (no)
